Target Or System: CD276, Q5ZPR3
Sequence (Q5ZPR3 whole entry): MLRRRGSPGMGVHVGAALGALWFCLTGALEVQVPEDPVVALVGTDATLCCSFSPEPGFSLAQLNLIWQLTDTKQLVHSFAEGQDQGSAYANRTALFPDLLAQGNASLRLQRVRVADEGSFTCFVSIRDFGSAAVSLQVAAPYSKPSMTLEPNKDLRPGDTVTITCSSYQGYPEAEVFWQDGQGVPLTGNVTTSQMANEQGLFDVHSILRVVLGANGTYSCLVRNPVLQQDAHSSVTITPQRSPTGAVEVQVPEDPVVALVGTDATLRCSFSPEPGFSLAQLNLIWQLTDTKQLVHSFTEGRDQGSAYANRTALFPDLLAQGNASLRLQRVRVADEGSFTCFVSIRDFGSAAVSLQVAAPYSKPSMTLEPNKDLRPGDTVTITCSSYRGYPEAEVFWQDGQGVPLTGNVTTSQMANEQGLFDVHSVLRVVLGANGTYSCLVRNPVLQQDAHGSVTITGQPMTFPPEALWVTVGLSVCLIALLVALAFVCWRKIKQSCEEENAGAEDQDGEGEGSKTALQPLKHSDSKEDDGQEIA
Endpoint Name: binding in a display sort

Binder	Endpoint Name	Reported
design_619_5728adc2-0aea-404f-92dd-a4575c53f550_649_dldesign_0_cycle1_af2pred (protein) GEELAKEVEKKAKEVLEKVKEKAKEIAAKGTPEQAREAKGLVARARAYAIAAVGAARTIPELAKRYLELAKKEAERL	binding in a display sort	not found (inactive)
design_616_e8336982-fa4d-4d7c-b06f-9007953e1994_767_dldesign_0_cycle1_af2pred (protein) AAAREAAVEAAKKQLEELKKKAEELLAYLKANPAASPEEKQKVLEESTKIISQASELAEAYPEVAEQAREAMSAAAKAAILAQKLL	binding in a display sort	not found (inactive)
design_619_5728adc2-0aea-404f-92dd-a4575c53f550_1042_dldesign_0_cycle1_af2pred (protein) DAKEHAERALELAKEAAESGSVALASRAMQELALAINADPALGAEAAKEAAKIFAKNPELAGFGEAAVAIAA	binding in a display sort	not found (inactive)

These data points were gathered from paper PMC13494018.
